Here, each record is paired with measured logD data.
Test: physchem
Conditions: pH 7.4
Starred links: 1 amine or outer side, 2 acyl side, 3 side chain; linkers in the order of their positions; H or OH if unused. Non-standard residues stand in square brackets, D forms with d. Residues, ends and D or L forms follow the SMILES beside them. X7 = C[C@@H](O)[C@H](NC(=S)[C@H](CCCCN)N[*:1])C(=O)[*:2]; X2 = CC(C)C[C@H](NC(=S)[C@@H](CC(C)C)N[*:1])C(=O)[*:2]; X4 = CC(C)C[C@H](N[*:1])C(=S)N1CCC[C@@H]1C(=O)[*:2]; NMeL = CN[C@@H](CC(C)C)C(=O)O
The answer should be a number; do not append a unit.

{"columns": ["COMPOUND", "logD"],
 "data": [
  ["CC(C)C[C@@H]1NC(=O)[C@H](Cc2ccc(O)cc2)NC(=O)[C@H]2CCCN2C(=O)[C@H](CC(C)C)N(C)C(=O)[C@H](CC(C)C)NC(=O)[C@@H](CC(C)C)NC1=O [10i] (cyclo(L[NMeL][dP]YL[dL]))", 1.11],
  ["C[C@@H](O)[C@@H]1NC(=S)[C@H](CCCCN)NC(=O)[C@@H](Cc2c[nH]c3ccccc23)NC(=O)[C@H](Cc2ccccc2)NC(=O)[C@@H]2CCCN2C(=O)[C@H](Cc2ccccc2)NC1=O [13b] (cyclo(FPF[dW][X7]))", -0.64],
  ["CC(C)C[C@@H]1NC(=O)[C@@H](CC(C)C)NC(=O)[C@H]2CCCN2C(=O)[C@H](CC(C)C)NC(=S)[C@@H](CC(C)C)NC(=O)[C@H](CC(C)C)NC(=O)[C@@H]2CCCN2C(=O)[C@@H](C)NC1=O [12a] (cyclo(L[dA]PL[X2][dP][dL]))", 1.34]
]}

q: May I ask what logD has been recorded for CC(C)C[C@@H]1NC(=O)[C@H](Cc2ccc(O)cc2)NC(=O)[C@H]2CCCN2C(=S)[C@H](CC(C)C)NC(=O)[C@H](CC(C)C)NC(=O)[C@@H](CC(C)C)NC1=O [10c] (cyclo(L[dL]L[X4]Y)) ?
a: 1.27

q: May I ask what logD has been recorded for N[C@@H](Cc1ccccc1)C(=S)N[C@@H](CCC(=O)O)C(=O)O [2a] ?
a: -1.45

----------
Here, each record is paired with measured remaining at 5 h data.
Experiment: in vitro
Details: both, human, plasma
Starred links: 1 amine or outer side, 2 acyl side, 3 side chain; linkers in the order of their positions; H or OH if unused. Non-standard residues stand in square brackets, D forms with d. Residues, ends and D or L forms follow the SMILES beside them. X6 = O=C([C@H](Cc1ccc(O)cc1)NC(=S)[C@H]1CCCN1[*:1])[*:2]; X2 = CC(C)C[C@H](NC(=S)[C@@H](CC(C)C)N[*:1])C(=O)[*:2]; X5 = CC(C)C[C@H](NC(=S)[C@H](CC(C)C)N[*:1])C(=O)[*:2]; X4 = CC(C)C[C@H](N[*:1])C(=S)N1CCC[C@@H]1C(=O)[*:2]
Record the value in %, omitting the unit from your answer.

// known answers, use as guide
{"columns": ["COMPOUND", "ASSAY_READOUT", "MEASURED_VALUE"],
 "data": [
  ["CC(C)C[C@@H]1NC(=O)[C@H](Cc2ccc(O)cc2)NC(=O)[C@H]2CCCN2C(=O)[C@H](CC(C)C)NC(=S)[C@H](CC(C)C)NC(=O)[C@@H](CC(C)C)NC1=O [10b] (cyclo(L[dL][X5][dP]Y))", "remaining at 5 h", 80],
  ["CC(C)C[C@@H]1NC(=O)[C@H](Cc2ccc(O)cc2)NC(=O)[C@H]2CCCN2C(=O)[C@H](CC(C)C)NC(=O)[C@H](CC(C)C)NC(=S)[C@@H](CC(C)C)NC1=O [10a] (cyclo(L[dP]YL[X2]))", "remaining at 5 h", 78],
  ["CC(C)C[C@@H]1NC(=O)[C@H](Cc2ccc(O)cc2)NC(=O)[C@H]2CCCN2C(=S)[C@H](CC(C)C)NC(=O)[C@H](CC(C)C)NC(=O)[C@@H](CC(C)C)NC1=O [10c] (cyclo(L[dL]L[X4]Y))", "remaining at 5 h", 78]
]}

Kindly review the next compound as well.
q: May I ask what remaining at 5 h has been recorded for CC(C)C[C@@H]1NC(=O)[C@H](Cc2ccc(O)cc2)NC(=S)[C@H]2CCCN2C(=O)[C@H](CC(C)C)NC(=O)[C@H](CC(C)C)NC(=O)[C@@H](CC(C)C)NC1=O [10d] (cyclo(LL[X6]L[dL])) ?
a: 78
